# System: CP325
# Assay remarks: qHTS profiling for inhibitors of Plasmodium falciparum proliferation (AID 504749); also: nearly all actives have a fitted effect of over 60% in size
# Experimental setup: P. falciparum in erythrocytes, SYBR Green DNA, 72 h; series mostly up to 28.7 µM
Records with an inconclusive call do not appear. Active and inactive are the calls of the source. Calls follow the shape of the dose curve; as a rule, active = well fitted inhibition curve with a large enough effect; inconclusive = small, poorly fitted or top-dose-only effect; inactive = flat fitted curve, though single readings scatter.
Property measured: outcome

Item smiles: C[C@H](N)C(=O)N[C@@H](C)P(=O)(O)O
Property measured: outcome
Reading: inactive

Item smiles: C[C@H]1O[C@@H](O[C@H]2[C@@H](O)C[C@H](O[C@H]3[C@@H](O)C[C@H](O[C@H]4CC[C@@]5(C)[C@H](CC[C@@H]6[C@@H]5C[C@@H](O)[C@]5(C)[C@@H](C7=CC(=O)OC7)CC[C@]65O)C4)O[C@@H]3C)O[C@@H]2C)C[C@H](O)[C@@H]1O
Property measured: outcome
Reading: inactive

Item smiles: CCN(CC)C(=S)S
Property measured: outcome
Reading: inactive

Item smiles: CN(C)c1ccc(C(=C2C=CC(=[N+](C)C)C=C2)c2c(O)c(S(=O)(=O)[O-])cc3cc(S(=O)(=O)O)ccc23)cc1
Property measured: outcome
Reading: inactive

// provenance: PubChem BioAssay (NCATS)
